# test_system: Mouse ACVR2A (mouse, UniProt P27038 20-135, limits assumed); also: test concentration or dose not given here
# Sequence (P27038 20-135 limits assumed): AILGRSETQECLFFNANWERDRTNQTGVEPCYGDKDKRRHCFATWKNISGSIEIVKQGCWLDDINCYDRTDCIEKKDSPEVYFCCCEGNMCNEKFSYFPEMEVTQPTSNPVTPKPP
# protocol_notes: ELISA
property_name: optical density (OD)

>>> measured_value("366_F05 (antibody, V domains shown, VH/VL only) VH: EVQLLESGGGLVQPGGSLRLSCAASGFTFSSYSMNWVRQAPGKGLEWVANINYNSGYKSYADSVKGRFTISRDNSKNTLYLQMNSLRAEDTAVYYCARSANWHDTHLDYWGQGTLVTVSS VL: DIQMTQSPSSLSASVGDRVTITCRASQSILTYLNWYQQKPGKAPKLLIYAATSRASGVPSRFSGSGSGTDFTLTISSLQPEDFATYYCQQSDNTPLTFGGGTKVEIK")
2.67
>>> measured_value("365_H06 (antibody, V domains shown, VH/VL only) VH: EVQLLESGGGLVQPGGSLRLSCAASGFTFSSYGMNWVRQAPGKGLEWVSGINYNSGYTGYADSVKGRFTISRDNSKNTLYLQMNSLRAEDTAVYYCARSANWHDTALDYWGQGTLVTVSS VL: DIQMTQSPSSLSASVGDRVTITCRASQSISSYVNWYQQKPGKAPKLLIYAATSRASGVPSRFSGSGSGTDFTLTISSLQPEDFATYYCQQSYSTPLTFGGGTKVEIK")
2.46
>>> measured_value("370_D03 (antibody, V domains shown, VH/VL only) VH: EVQLLESGGGLVQPGGSLRLSCAASGFTFSSYSMNWVRQAPGKGLEWVASINYNGGYTSYADSVKGRFTISRDNSKNTLYLQMNSLRAEDTAVYYCARGATWHDTHLDYWGQGTLVTVSS VL: DIQMTQSPSSLSASVGDRVTITCRASQSIITYLNWYQQKPGKAPKLLIYAATSRASGVPSRFSGSGSGTDFTLTISSLQPEDFATYYCQQSYDLPLTFGGGTKVEIK")
3.25
